tested on: Trichomonas vaginalis; assay: Antitrichomonas activity against Trichomonas vaginalis after 48 hrs by trypan blue exclusion assay; type: functional
measurement.name: MIC (µg/mL)
The response must be a number in µg/mL with no trailing unit.

Item under review: Cc1ncc([N+](=O)[O-])n1CCC(Oc1ccc(C(F)(F)F)cc1)c1ccccc1 (centres undefined) . Reported MIC? 25

Note, next up: FC(F)(F)c1ccc(OC(CCn2ccnc2)c2ccccc2)cc1 (centres undefined) 12.5

Note, next up: Cc1ncc([N+](=O)[O-])n1C/C=C/c1ccccc1 25

Note, next up: O=C(CCn1cnc([N+](=O)[O-])c1)c1ccccc1 25

Note, next up: Cc1nccn1CCC(Oc1ccc(C(F)(F)F)cc1)c1ccccc1 (centres undefined) 25

Note, next up: O=[N+]([O-])c1cn(CCC(Oc2ccc(C(F)(F)F)cc2)c2ccccc2)cn1 (centres undefined) 12.5

Note, next up: O=[N+]([O-])c1cn(C/C=C/c2ccccc2)cn1 25

Note, next up: FC(F)(F)c1ccc(OC(CCn2cncn2)c2ccccc2)cc1 (centres undefined) 50

Note, next up: Cc1ncc([N+](=O)[O-])n1CCC(O)c1ccccc1 (centres undefined) 50

Note, next up: CCCCCCCCCc1ccc(OCCOCCOCCOCCOCCOCCOCCOCCOCCO)cc1 37.4

Note, next up: O=[N+]([O-])c1cn(CCC(O)c2ccccc2)cn1 (centres undefined) 25

Note, next up: FC(F)(F)c1ccc(OC(CCn2cnc3ccccc32)c2ccccc2)cc1 (centres undefined) 25

Note, next up: Cc1ncc([N+](=O)[O-])n1CCC(=O)c1ccccc1 50
